Origin of the recorded values: PubChem BioAssay (EPA / NIEHS)

Read-out: Cytochrome P450 7A1 (Homo sapiens)
Test: LTEA_HepaRG_CYP7A1: Life Technologies and Expression Analysis (LTEA) Assay for Cytochrome P450 7A1 (CYP7A1) using HepaRG (AID 2283496)
Conditions: mRNA level, 48 h; actives raise or lower the signal
Procedure: LTEA_HepaRG is a cell based, multiplexed-readout assay that uses HepaRG, a human liver cell line, with measurements taken at 48 hours after chemical dosing on a 96-well plate.LTEA_HepaRG_CYP7A1 is one of 102 assay component(s) measured in the LTEA HepaRG cell culture assay. It is a marker of NR mediated metabolism.Data from the assay component LTEA_HepaRG_CYP7A1 was analyzed into 1 endpoint. […]
Activity calls are given as the source filed them. How the source made its calls: active means hit-call score of the fitted dose curve at least 0.9, where 1 is the maximum; inactive means score below 0.9.
parameter: AC50

INPUT: Give its AC50 value. Item: CCOC1Oc2ccc(OS(C)(=O)=O)cc2C1(C)C (stereo not drawn)
OUTPUT: 85.6 µM (active)

INPUT: May I ask what AC50 has been recorded for CC(C)OC(=O)Nc1cccc(Cl)c1 ?
OUTPUT: inactive

INPUT: What does the record list as AC50 for CCCN(CCC)c1c([N+](=O)[O-])cc(C(F)(F)F)cc1[N+](=O)[O-] ?
OUTPUT: inactive

INPUT: Quick one: AC50 of O=C(NC(=O)c1c(F)cccc1F)Nc1ccc(OC(F)(F)C(F)OC(F)(F)F)c(Cl)c1 (stereo not drawn) ?
OUTPUT: inactive

Give me AC50 for each of these compounds, listed below.
1. O=[N+]([O-])c1c(Cl)c(Cl)c(Cl)c(Cl)c1Cl
2. O=[N+]([O-])/N=C1\NCCN1Cc1ccc(Cl)nc1
3. CC(C)N(C(=O)COc1nnc(C(F)(F)F)s1)c1ccc(F)cc1
4. COP(=S)(OC)Oc1ccc(SC)c(C)c1

OUTPUT:
["inactive", "34.1 µM (active)", "24.7 µM (active)", "inactive"]

====

Read-out: NAD(P)H dehydrogenase [quinone] 1 (NQO1), NQO1 (gene 1728)
Experiment: LTEA_HepaRG_NQO1: Life Technologies and Expression Analysis (LTEA) Assay for NAD(P)H dehydrogenase [quinone] 1 (NQO1) using HepaRG (AID 2283526)
Details: mRNA level, 48 h; actives raise or lower the signal
Active and inactive are the calls of the source. Rule for the calls: active = hit-call score of the fitted dose curve at least 0.9, where 1 is the maximum; inactive = score below 0.9.
I would appreciate it if you answered using one of these outcomes: active, inactive

INPUT: Please share the test call associated with CCC(C)(NC(=O)c1cc(Cl)c(C)c(Cl)c1)C(=O)CCl (stereo not drawn) .
OUTPUT: active

INPUT: Fill in: this test's call for CC(C)OC(=O)Nc1cccc(Cl)c1 is ___
OUTPUT: inactive

INPUT: Could you kindly confirm the outcome this assay logged for O=[N+]([O-])c1c(Cl)c(Cl)c(Cl)c(Cl)c1Cl ?
OUTPUT: inactive

INPUT: GET /call?item= CNC(=O)Oc1ccccc1OC(C)C returns the recorded outcome of this test.
OUTPUT: inactive

***
INPUT: For O=C(O)CCCOc1ccc(Cl)cc1Cl , what call appears in the results of this test?
OUTPUT: inactive

INPUT: Please let me know the test result on file for CNC(=O)Oc1cccc(N=CN(C)C)c1 .
OUTPUT: inactive

INPUT: Dear all, I need the recorded test outcome for ClC1C(Cl)C(Cl)C(Cl)C(Cl)C1Cl (stereo not drawn) , thank you.
OUTPUT: inactive

INPUT: Please state the recorded outcome for this compound: CCc1ccc(C(=O)NN(C(=O)c2cc(C)cc(C)c2)C(C)(C)C)cc1
OUTPUT: inactive

INPUT: Answer briefly: the call reported for CCOC1Oc2ccc(OS(C)(=O)=O)cc2C1(C)C (stereo not drawn) in this assay.
OUTPUT: inactive

INPUT: What was the test verdict on COP(=S)(OC)Oc1ccc(SC)c(C)c1 ?
OUTPUT: inactive

INPUT: Outcome? CCOCN(C(=O)CCl)c1c(C)cccc1CC
OUTPUT: inactive

INPUT: Called result for CCCN(CCOc1c(Cl)cc(Cl)cc1Cl)C(=O)n1ccnc1
OUTPUT: inactive

INPUT: # fetch the recorded call for CNC(=O)CSP(=S)(OC)OC here
OUTPUT: inactive
